Every entry's value here was drawn from patent US10538555B2.

- TESTED SYSTEM: Human PD-L1/PD-1 (Homo sapiens)
- Construct: TVMV protease cleavage site (C); made in house; host or cells: HEK293T cells
- TEST SUMMARY: HTRF Human PD-L1/PD-1 binding assay (PD-1-Ig/PD-L1-His)
- RECORDED CONDITIONS: PD-L1-His 10 nM, PD-1-Ig 20 nM; class symbol; read-out: HTRF Human PD-L1/PD-1 Binding Assay IC50 Range
pIC50: −log10 of the molar value. Where a SMILES comes first, the peptide text is derived from it. Bridges are numbered along the chain shown (N, C = ends). [ ]: non-standard residue; d: D form. NMePhe(4-F) = CN[C@@H](Cc1ccc(F)cc1)C(=O)O; Phe(4-F) = N[C@@H](Cc1ccc(F)cc1)C(=O)O; NMeF = CN[C@@H](Cc1ccccc1)C(=O)O; NMeNle = CCCC[C@H](NC)C(=O)O
// reported pIC50 per item

[[record]]
molecule = "CCCC[C@H]1C(=O)N2CCC[C@@H]2C(=O)N[C@@H](CC(=O)O)C(=O)N[C@@H](C(C)C)C(=O)N(C)[C@@H](Cc2ccc(F)cc2)C(=O)N[C@@H](CC(=O)O)C(=O)N2CCC[C@@H]2C(=O)N[C@@H](Cc2c[nH]c3ccccc23)C(=O)N[C@@H](Cc2ccc(O)cc2)C(=O)N[C@@H](CC(C)C)C(=O)N[C@H](C(=O)NCC(N)=O)CSCC(=O)N[C@@H](Cc2ccc(F)cc2)C(=O)N(C)[C@@H](Cc2ccccc2)C(=O)N1C [Example 10110] ({CH2CO}-[Phe(4-F)][NMeF][NMeNle][dP]DV[NMePhe(4-F)]D[dP]WYLCG-NH2; thioether N-13)"
readout_name = "pIC50"
recorded_value = "8.00 to 9.00"


Attention now turns to another entry.
Which pIC50 value belongs to `CCCC[C@H]1C(=O)N(C)[C@@H](CCCC)C(=O)N[C@@H](C)C(=O)N[C@H](C(=O)NCC(N)=O)CSCC(=O)N[C@@H](Cc2ccc(O)cc2)C(=O)N(C)[C@@H](C)C(=O)N[C@@H](CC(N)=O)C(=O)N2CCC[C@H]2C(=O)N[C@@H](Cc2cnc[nH]2)C(=O)N[C@@H](CCC(N)=O)C(=O)N2CCNC[C@H]2C(=O)N[C@@H](Cc2c[nH]c3ccccc23)C(=O)N[C@@H](CO)C(=O)N[C@@H](Cc2c[nH]c3ccccc23)C(=O)N1C` ?
7.00 to 8.00

---

- TESTED SYSTEM: Human PD-L1/PD-1 (Homo sapiens, UniProt Q9NZQ7)
- Construct: TVMV protease cleavage site (C); made in house; host or cells: HEK293T cells
- Sequence (Q9NZQ7 with tags, fused parts or gaps): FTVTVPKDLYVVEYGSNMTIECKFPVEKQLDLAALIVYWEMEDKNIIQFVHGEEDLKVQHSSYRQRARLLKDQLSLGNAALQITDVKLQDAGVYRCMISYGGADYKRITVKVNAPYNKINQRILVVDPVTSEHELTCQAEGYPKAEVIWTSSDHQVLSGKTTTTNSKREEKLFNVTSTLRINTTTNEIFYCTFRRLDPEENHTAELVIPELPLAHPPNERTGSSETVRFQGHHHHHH
- TEST SUMMARY: HTRF Human PD-L1/PD-1 binding assay (PD-1-Ig/PD-L1-His)
- RECORDED CONDITIONS: PD-L1-His 10 nM, PD-1-Ig 20 nM; class symbol; read-out: HTRF Human PD-L1/PD-1 Binding Assay IC50 Range
pIC50: −log10 of the molar value. Where a SMILES comes first, the peptide text is derived from it. Bridges are numbered along the chain shown (N, C = ends). [ ]: non-standard residue; d: D form. ξ: configuration not given here. Hyp = O=C(O)[C@@H]1C[C@@H](O)CN1; NMeNle = CCCC[C@H](NC)C(=O)O; hSer = N[C@@H](CCO)C(=O)O; NMeA = CN[C@@H](C)C(=O)O; ξC = NC(CS)C(=O)O
READOUT NAME: pIC50

[[record]]
molecule = "CCCC[C@H]1C(=O)N(C)[C@@H](CCCC)C(=O)N[C@@H](CCCNC(=N)N)C(=O)NC(C(=O)NCC(N)=O)CSCC(=O)N[C@@H](Cc2ccc(O)cc2)C(=O)N(C)[C@@H](C)C(=O)N[C@@H](CC(N)=O)C(=O)N2CCC[C@H]2C(=O)N[C@@H](CCO)C(=O)N[C@@H](CC(C)C)C(=O)N2CCC[C@H]2C(=O)N[C@@H](Cc2c[nH]c3ccccc23)C(=O)N[C@@H](CO)C(=O)N[C@@H](Cc2c[nH]c3ccccc23)C(=O)N1C (some centres unmarked) [Example 9148] ({CH2CO}-Y[NMeA]NP[hSer]LPWSW[NMeNle][NMeNle]R[ξC]G-NH2; thioether N-14)"
tested_system = "Human PD-L1/PD-1 (Homo sapiens, UniProt Q9NZQ7)"
readout_name = "pIC50"
recorded_value = "5.00 to 6.00"


Which pIC50 value belongs to CCCC[C@H]1C(=O)N(C)[C@@H](CCCC)C(=O)N[C@@H](CCC(=O)O)C(=O)N[C@H](C(=O)NCC(N)=O)CSCC(=O)N[C@@H](Cc2ccc(O)cc2)C(=O)N(C)[C@@H](C)C(=O)N[C@@H](CC(N)=O)C(=O)N2CCC[C@H]2C(=O)N[C@@H](CO)C(=O)N[C@@H](CCC(=O)O)C(=O)N2C[C@H](O)C[C@H]2C(=O)N[C@@H](Cc2c[nH]c3ccccc23)C(=O)N[C@@H](CCC(=O)O)C(=O)N[C@@H](Cc2c[nH]c3ccccc23)C(=O)N1C [Example 5196] ({CH2CO}-Y[NMeA]NPSE[Hyp]WEW[NMeNle][NMeNle]ECG-NH2; thioether N-14) ?
8.00 to 9.00

---

// reported pIC50 per item
- TESTED SYSTEM: Human PD-L1/PD-1 (Homo sapiens, UniProt Q9NZQ7)
- Construct: TVMV protease cleavage site (C); made in house; host or cells: HEK293T cells
- TEST SUMMARY: HTRF Human PD-L1/PD-1 binding assay (PD-1-Ig/PD-L1-His)
- RECORDED CONDITIONS: PD-L1-His 10 nM, PD-1-Ig 20 nM; class symbol; read-out: HTRF Human PD-L1/PD-1 Binding Assay IC50 Range
- Text: Methods for Testing the Ability of Macrocyclic Peptides to Compete for the Binding of PD-1 to PD-L1 Using Homogenous Time-Resolved Fluorescence (HTRF) Binding Assays The ability of the macrocyclic peptides of the present disclosure to bind to PD-L1 was investigated using a PD-1/PD-L1 Homogenous Time-Resolved Fluorescence (HTRF) binding assay. Homogenous Time-Resolved Fluorescence (HTRF) Assays of Binding of Soluble PD-1 to Soluble PD-L1. […]
pIC50: −log10 of the molar value. *1 amine or outer side, *2 acyl side, *3 side chain or, on linkers, in order; H or OH if unused. Where a SMILES comes first, the peptide text is derived from it. Bridges are numbered along the chain shown (N, C = ends). [ ]: non-standard residue; d: D form. X8 = O=C([C@H](CC1CNc2ccccc21)N[*:1])[*:2]; Hyp = O=C(O)[C@@H]1C[C@@H](O)CN1; NMeF = CN[C@@H](Cc1ccccc1)C(=O)O; dHyp = O=C(O)[C@H]1C[C@H](O)CN1; NMeNle = CCCC[C@H](NC)C(=O)O; NMeA = CN[C@@H](C)C(=O)O

[[record]]
molecule = "CCCC[C@H]1C(=O)N(C)[C@@H](CCCC)C(=O)N[C@@H](CCC(=O)O)C(=O)N[C@H](C(=O)NCC(N)=O)CSCC(=O)N[C@@H](Cc2ccc(O)cc2)C(=O)N(C)[C@@H](C)C(=O)N[C@@H](CC(=O)O)C(=O)N2CCC[C@H]2C(=O)N[C@@H](CO)C(=O)N[C@@H](CC(C)C)C(=O)N2C[C@H](O)C[C@H]2C(=O)N[C@@H](Cc2c[nH]c3ccccc23)C(=O)N[C@@H](CO)C(=O)N[C@@H](CC2CNc3ccccc32)C(=O)N1C (some centres unmarked) [Example 5184] ({CH2CO}-Y[NMeA]DPSL[Hyp]WS[X8][NMeNle][NMeNle]ECG-NH2; thioether N-14)"
recorded_value = "7.00 to 8.00"


Attention now turns to another entry.
Which pIC50 value belongs to CCCC[C@H]1C(=O)N2C[C@@H](O)C[C@@H]2C(=O)N[C@@H](CC(=O)O)C(=O)N[C@@H](C)C(=O)N(C)[C@@H](Cc2ccccc2)C(=O)N[C@@H](Cc2ccc(O)cc2)C(=O)N2C[C@@H](O)C[C@@H]2C(=O)N[C@@H](Cc2c[nH]c3ccccc23)C(=O)N[C@@H](Cc2ccc(O)cc2)C(=O)N[C@@H](CC(C)C)C(=O)N[C@H](C(=O)NCC(N)=O)CSCC(=O)N[C@@H](Cc2ccccc2)C(=O)N(C)[C@@H](Cc2ccccc2)C(=O)N1C [Example 10079] ({CH2CO}-F[NMeF][NMeNle][dHyp]DA[NMeF]Y[dHyp]WYLCG-NH2; thioether N-13) ?
7.00 to 8.00

---

// reported pIC50 per item
- TESTED SYSTEM: Human PD-L1/PD-1 (Homo sapiens)
- Construct: TVMV protease cleavage site (C); made in house; host or cells: HEK293T cells
- TEST SUMMARY: HTRF Human PD-L1/PD-1 binding assay (PD-1-Ig/PD-L1-His)
- RECORDED CONDITIONS: PD-L1-His 10 nM, PD-1-Ig 20 nM; class symbol; read-out: HTRF Human PD-L1/PD-1 Binding Assay IC50 Range
pIC50: −log10 of the molar value. Where a SMILES comes first, the peptide text is derived from it. Bridges are numbered along the chain shown (N, C = ends). [ ]: non-standard residue; d: D form. ξ: configuration not given here. Bta = N[C@@H](Cc1csc2ccccc12)C(=O)O; Hyp = O=C(O)[C@@H]1C[C@@H](O)CN1; NMeNle = CCCC[C@H](NC)C(=O)O; hSer = N[C@@H](CCO)C(=O)O; NMeA = CN[C@@H](C)C(=O)O; Dap = NC[C@H](N)C(=O)O; ξC = NC(CS)C(=O)O; Sar = CNCC(=O)O

Illustrative cases are given below, each with its answer.
[[record]]
compound = "CCCC[C@H]1C(=O)N(C)[C@@H](CCCC)C(=O)N[C@@H](CCCNC(=N)N)C(=O)NC(C(=O)NCC(N)=O)CSCC(=O)N[C@@H](Cc2ccc(O)cc2)C(=O)N(C)[C@@H](C)C(=O)N[C@@H](CC(N)=O)C(=O)N2CCC[C@H]2C(=O)N[C@@H](CO)C(=O)N[C@@H](CCO)C(=O)N2C[C@H](O)C[C@H]2C(=O)N[C@@H](Cc2c[nH]c3ccccc23)C(=O)N[C@@H](CO)C(=O)N[C@@H](Cc2csc3ccccc23)C(=O)N1C (stereo partly shown) [Example 10035] ({CH2CO}-Y[NMeA]NPS[hSer][Hyp]WS[Bta][NMeNle][NMeNle]R[ξC]G-NH2; thioether N-14)"
tested_system = "Human PD-L1/PD-1 (Homo sapiens)"
readout_name = "pIC50"
recorded_value = "8.00 to 9.00"

[[record]]
compound = "CCCC[C@H]1C(=O)N[C@@H](CC(N)=O)C(=O)N2CCC[C@H]2C(=O)N[C@@H](CO)C(=O)N[C@@H](CCO)C(=O)N2C[C@H](O)C[C@H]2C(=O)N[C@@H](Cc2c[nH]c3ccccc23)C(=O)N[C@@H](CN)C(=O)N[C@@H](Cc2c[nH]c3ccccc23)C(=O)N(C)[C@@H](C)C(=O)N(C)CC(=O)N[C@@H](CCCNC(=N)N)C(=O)NC(C(=O)NCC(N)=O)CSCC(=O)N[C@@H](Cc2ccc(O)cc2)C(=O)N1C (stereo partly shown) [Example 10205] ({CH2CO}-Y[NMeNle]NPS[hSer][Hyp]W[Dap]W[NMeA][Sar]R[ξC]G-NH2; thioether N-14)"
tested_system = "Human PD-L1/PD-1 (Homo sapiens)"
readout_name = "pIC50"
recorded_value = "5.00 to 6.00"

[[record]]
compound = "CCCC[C@H]1C(=O)N(C)CC(=O)N[C@@H](CC(N)=O)C(=O)N[C@@H](C(C)C)C(=O)N(C)[C@@H](Cc2ccccc2)C(=O)N[C@@H](Cc2ccc(O)cc2)C(=O)N(C)CC(=O)N[C@@H](Cc2c[nH]c3ccccc23)C(=O)N[C@@H](Cc2ccc(O)cc2)C(=O)N[C@@H](CCCN)C(=O)N[C@H](C(=O)NCC(N)=O)CSCC(=O)N[C@@H](Cc2ccccc2)C(=O)N(C)[C@@H](Cc2ccncc2)C(=O)N1C (single isomer, unassigned) [Example 3638-A]"
tested_system = "Human PD-L1/PD-1 (Homo sapiens)"
readout_name = "pIC50"
recorded_value = "5.00 to 6.00"


Attention now turns to another entry.
Which pIC50 value belongs to CCCC[C@H]1C(=O)N(C)[C@@H](CCCC)C(=O)N[C@@H](CCC(=O)O)C(=O)N[C@H](C(=O)NCC(N)=O)CSCC(=O)N[C@@H](Cc2ccc(O)cc2)C(=O)N(C)[C@@H](C)C(=O)N[C@@H](CC(=O)O)C(=O)N2CCC[C@H]2C(=O)N[C@@H](CO)C(=O)N[C@@H](CCC(=O)O)C(=O)N2C[C@H](O)C[C@H]2C(=O)N[C@@H](Cc2c[nH]c3ccccc23)C(=O)N[C@@H](CCC(=O)O)C(=O)N[C@@H](Cc2c[nH]c3ccccc23)C(=O)N1C [Example 5260] ({CH2CO}-Y[NMeA]DPSE[Hyp]WEW[NMeNle][NMeNle]ECG-NH2; thioether N-14) ?
8.00 to 9.00
